Target: BCRP (BCRP-MDCKII monolayer) (Homo sapiens)
Construct: host or cells: MDCKII (canine kidney) cells
Sequence (Q9UNQ0 1-655): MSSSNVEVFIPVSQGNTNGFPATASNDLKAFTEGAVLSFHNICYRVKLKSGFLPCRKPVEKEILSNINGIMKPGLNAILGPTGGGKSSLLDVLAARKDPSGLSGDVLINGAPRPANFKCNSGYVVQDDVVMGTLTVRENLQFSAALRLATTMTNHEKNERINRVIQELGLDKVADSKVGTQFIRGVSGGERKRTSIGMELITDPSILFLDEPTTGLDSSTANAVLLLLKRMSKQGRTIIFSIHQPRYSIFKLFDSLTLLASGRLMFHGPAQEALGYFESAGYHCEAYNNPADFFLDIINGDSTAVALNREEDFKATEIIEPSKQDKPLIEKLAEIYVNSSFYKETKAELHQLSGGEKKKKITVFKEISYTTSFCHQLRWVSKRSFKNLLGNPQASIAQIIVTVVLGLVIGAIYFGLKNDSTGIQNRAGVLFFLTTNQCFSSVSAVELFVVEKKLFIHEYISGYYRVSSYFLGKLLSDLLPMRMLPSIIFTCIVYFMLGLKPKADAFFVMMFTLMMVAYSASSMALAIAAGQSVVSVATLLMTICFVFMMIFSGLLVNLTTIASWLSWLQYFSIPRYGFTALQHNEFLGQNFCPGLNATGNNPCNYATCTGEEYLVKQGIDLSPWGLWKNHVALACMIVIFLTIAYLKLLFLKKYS
Assay: MDCKII-BCRP bidirectional transport assay
Type: in vitro ADME
Answer -1 if MDCK-BCRP: Efflux Ratio is under 1, and 1 if it is 1 or more.

Given Cc1ccc(-c2noc([C@H]3C[C@@H]3F)n2)cc1NC(=O)c1cnc2cc(N3CCC3)ccn12 , state whether its MDCK-BCRP: Efflux Ratio is at least 1.
1

Given Cc1ccc(-c2noc(C3CCC(=O)N3C)n2)cc1NC(=O)c1cnc2ccccn12 (racemic) , state whether its MDCK-BCRP: Efflux Ratio is at least 1.
1

Given Cc1ccc(-c2noc(C34CC(F)(C3)C4)n2)cc1NC(=O)c1cnc2ccccn12 , state whether its MDCK-BCRP: Efflux Ratio is at least 1.
1

Given COC1(OC)CC(c2nc(-c3ccc(C)c(NC(=O)c4cnc5ccccn45)c3)no2)C1 , state whether its MDCK-BCRP: Efflux Ratio is at least 1.
1

Given Cc1ccc(-c2noc(C3(C(F)F)CC(F)(F)C3)n2)cc1NC(=O)c1cnc2ccccn12 , state whether its MDCK-BCRP: Efflux Ratio is at least 1.
-1

Given Cc1ccc(-c2noc(C3CCS(=O)(=O)C3)n2)cc1NC(=O)c1cnc2ccccn12 (racemic) , state whether its MDCK-BCRP: Efflux Ratio is at least 1.
1

Given Cc1ccc(-c2noc(C3CCN3)n2)cc1NC(=O)c1cnc2ccccn12 (racemic) , state whether its MDCK-BCRP: Efflux Ratio is at least 1.
1

Given COC(=O)C1CC(c2nc(-c3ccc(C)c(NC(=O)c4cnc5ccccn45)c3)no2)C1 (stereo not drawn) [Compound I-342] , state whether its MDCK-BCRP: Efflux Ratio is at least 1.
-1

Given Cc1ccc(-c2noc(C3CCCN3)n2)cc1NC(=O)c1cnc2ccccn12 (racemic) , state whether its MDCK-BCRP: Efflux Ratio is at least 1.
1

Given Cc1ccc(-c2noc([C@H]3C[C@@H]3F)n2)cc1NC(=O)c1cnn2ccccc12 , state whether its MDCK-BCRP: Efflux Ratio is at least 1.
1

Given Cc1ccc(-c2noc(CC(=O)OCc3ccccc3)n2)cc1NC(=O)c1cnc2ccccn12 , state whether its MDCK-BCRP: Efflux Ratio is at least 1.
1

Given O=C(Nc1cc(-c2noc([C@H]3C[C@@H]3F)n2)ccc1Cl)c1cnc2ccccn12 , state whether its MDCK-BCRP: Efflux Ratio is at least 1.
-1

Given Cc1ccc(-c2noc(C3CCCCO3)n2)cc1NC(=O)c1cnc2ccccn12 (racemic) , state whether its MDCK-BCRP: Efflux Ratio is at least 1.
1

Given Cc1ccc(-c2noc(C3CC(O)(C4(O)CCC4)C3)n2)cc1NC(=O)c1cnc2ccccn12 (stereo not drawn) , state whether its MDCK-BCRP: Efflux Ratio is at least 1.
1
